TESTED_ON: Caspase-6 (Homo sapiens)
METHOD_SUMMARY: inhibition of CASP6 peptide cleavage – biochemical, VEID-R110 fluorescence, cherry-pick, dose response (AID 720632)
CONDITION_PARAMETERS: caspase-6, VEID-R110 fluorogenic substrate; at 26 µM (top of the series)
Calls of active or inactive are those of the source. No rule for the calls is given here.

MOLECULE: CCOC(=O)c1sc(C)c2c(=O)n(Cc3ccc(Cl)cc3)cnc12
TESTED_ON: Caspase-6 (Homo sapiens)
activity change, negative = inhibition: inactive
--
MOLECULE: CCOc1ccc(NC(=O)CN(C)C(=O)c2cc(C)nc3ccccc23)cc1OCC
TESTED_ON: Caspase-6 (Homo sapiens)
activity change, negative = inhibition: inactive
--
MOLECULE: Cc1cccc(-n2c(C)nc3cc(C(=O)NCCN4CCOCC4)ccc32)c1
TESTED_ON: Caspase-6 (Homo sapiens)
activity change, negative = inhibition: inactive
--
MOLECULE: Nc1cc(C(Cl)=C(Cl)Cl)c(S(N)(=O)=O)cc1S(N)(=O)=O
TESTED_ON: Caspase-6 (Homo sapiens)
activity change, negative = inhibition: inactive
--
MOLECULE: C[C@@H]1CN([C@H](C)CO)C(=O)c2cc(Br)cnc2O[C@H]1CN(C)CC1CCCC1
TESTED_ON: Caspase-6 (Homo sapiens)
activity change, negative = inhibition: inactive
--
MOLECULE: CC(C)=NNc1cc([N+](=O)[O-])cc2c1C(=O)N(C)S2=O (stereo unspecified)
TESTED_ON: Caspase-6 (Homo sapiens)
activity change, negative = inhibition: inactive
--
MOLECULE: O=C(Nc1ccc(F)cc1)c1ccccc1NC(=O)C1CC=CCC1C(=O)O (stereo unspecified)
TESTED_ON: Caspase-6 (Homo sapiens)
activity change, negative = inhibition: inactive
--
MOLECULE: CC(C)CN1CCC(CN2CCNC(=O)C2=O)CC1
TESTED_ON: Caspase-6 (Homo sapiens)
activity change, negative = inhibition: inactive
--
MOLECULE: CCOC(=O)CC1C(=O)NCCN1S(=O)(=O)c1cccc(C(F)(F)F)c1 (stereo unspecified)
TESTED_ON: Caspase-6 (Homo sapiens)
activity change, negative = inhibition: inactive
--
MOLECULE: COc1ccc(-n2c(NNC(C)=O)nc3sc4c(c3c2=O)CCCC4)cc1
TESTED_ON: Caspase-6 (Homo sapiens)
activity change, negative = inhibition: inactive
--
MOLECULE: CCCCCn1nnnc1-c1nc2cc(C)c(C)cc2[nH]c1=O
TESTED_ON: Caspase-6 (Homo sapiens)
activity change, negative = inhibition: inactive
--
MOLECULE: Cc1ccc(C(=O)NCC(=O)N(C)Cc2ccccc2C)s1
TESTED_ON: Caspase-6 (Homo sapiens)
activity change, negative = inhibition: inactive
--
MOLECULE: COc1nc(C)c2cc(C)oc2n1
TESTED_ON: Caspase-6 (Homo sapiens)
activity change, negative = inhibition: inactive
--
MOLECULE: CCC(=O)Nc1ccc2c(c1)OC[C@H](C)N(C(=O)C1CC1)C[C@H](C)[C@@H](OC)CN(C)C2=O
TESTED_ON: Caspase-6 (Homo sapiens)
activity change, negative = inhibition: inactive
--
MOLECULE: CCC(=O)Nc1ccc2c(c1)OC[C@@H](C)N(Cc1ccccc1)C[C@@H](C)[C@@H](OC)CN(C)C2=O
TESTED_ON: Caspase-6 (Homo sapiens)
activity change, negative = inhibition: inactive
--
MOLECULE: CN1CCN(c2ccc(CNC(=O)C3Cc4c(-c5ccc6c(c5)OCO6)ccnc4O3)cc2)CC1 (stereo unspecified)
TESTED_ON: Caspase-6 (Homo sapiens)
activity change, negative = inhibition: inactive
--
MOLECULE: COc1ccccc1C(=O)Nc1ccc2c(c1)OC[C@H](C)N(CC1CC1)C[C@@H](C)[C@H](OC)CN(C)C2=O
TESTED_ON: Caspase-6 (Homo sapiens)
activity change, negative = inhibition: inactive
--
MOLECULE: COc1cccc(/C=N/Nc2nc(C)cc(=O)[nH]2)c1OC
TESTED_ON: Caspase-6 (Homo sapiens)
activity change, negative = inhibition: inactive
--
MOLECULE: CCCN1C[C@@H](C)[C@H](OC)CN(C)C(=O)c2ccc(NC(=O)c3ccccc3)cc2OC[C@@H]1C
TESTED_ON: Caspase-6 (Homo sapiens)
activity change, negative = inhibition: inactive
--
MOLECULE: COc1cc2ccccc2cc1C(=O)N(CCN(C)C)c1nc2c(F)cc(F)cc2s1
TESTED_ON: Caspase-6 (Homo sapiens)
activity change, negative = inhibition: inactive
--
MOLECULE: C=CCNc1nc(Nc2cc(Cl)ccc2OC)nc(OC)n1
TESTED_ON: Caspase-6 (Homo sapiens)
activity change, negative = inhibition: inactive
